Experimental Target: T1, human CD147 protein (adsorbed to ELISA plates) (human, UniProt P35613-2 22-205, limits assumed)
T1 construct: also called human CD147 polypeptide; Basigin
T1 sequence (looked up): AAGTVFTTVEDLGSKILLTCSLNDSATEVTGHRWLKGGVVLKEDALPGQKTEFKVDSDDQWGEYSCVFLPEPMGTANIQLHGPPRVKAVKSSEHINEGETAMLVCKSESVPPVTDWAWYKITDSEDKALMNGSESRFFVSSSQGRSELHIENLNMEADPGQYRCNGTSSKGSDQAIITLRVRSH
Measurement Description: ELISA, human CD147 protein adsorbed to plate, intact activatable antibody; apparent KD
Measurement Kind: Kd (nM)
Reply numerically in nM, unit not repeated.

Q: Any idea what Kd was measured for anti-human CD147 activatable antibody hu 3A11 Hc1/Lc1-445-3001 (antibody, also called hu 3A11-445-3001) VH: EVQLVESGGGLVQPGGSLRLSCAASGFTFSNYWMDWVRQAPGKGLEWVGEIRLKSYNYATHYAASVKGRFTISRDDSKNSVYLQMNSLKTEDTAVYYCTAAGTDYWGQGTLVTVSS VL: SHGPCHFDYQCINNTGGGSSGGSAVGLLAPPGGLSGRSDNHGGSDIQMTQSPSSLSASVGDRVTITCRASQSVRTDVGWYQQKPGKAPKLLIYYSSNRYTGVPSRFSGSGSGTDFTLTISSLQPEDFATYYCQQDYSSPYTFGQGTKLEIK ?
Ans: 7.86

Value source: patent US20180303952A1
